test system: HEK-293T; experiment: Multiplex assay against HEK293T; format: toxicity, cell-based; settings: human, 12 h, 1 µM, compound concentration 1 uM, replicate 1
valueType: Total Cell Count
Just the number, please.

As a guide, the following entries are already answered.
{"columns": ["molecule", "Total Cell Count"],
 "data": [
  ["C=CC(=O)Nc1cccc(Sc2nc(Nc3ccc(N4CCN(C)CC4)cc3)ncc2Cl)c1", 748],
  ["COc1cc(Nc2nccc(-c3cnn4nc(OC)ccc34)n2)cc(C(F)(F)F)c1", 214],
  ["CC(C)CC(=O)Nc1[nH]nc2c1CN(C(=O)C1CCN(C)CC1)C2(C)C", 604]
]}

Looking up "CC(C)NC(=O)N1CC[C@H](NC2=Nc3cc(F)ccc3N(CC(F)F)c3ccc(Cl)cc32)C1" , I found its Total Cell Count recorded as 170

Reported Total Cell Count ( "Cl.O=C(O)c1cc(-c2ccc(C3CCNCC3)cc2)c2ccc(-c3ccc(C(F)(F)F)cc3)cc2c1" ) = 147

Consider "COc1ccccc1CN[C@H]1C2CCN(CC2)[C@H]1C(c1ccccc1)c1ccccc1" . Its measured Total Cell Count is 250

Measured Total Cell Count of "C=CC(=O)Nc1cccc(Oc2nc(Nc3ccc(N4CCN(C)CC4)cc3OC)ncc2Cl)c1" : 425

The recorded Total Cell Count for "COc1ccc(-c2ccc3ncc4c(c3c2)n(-c2ccc(N3CCNCC3)c(C(F)(F)F)c2)c(=O)n4C)cn1.O=C(O)/C=C\C(=O)O" is 358
